Provenance of the data: patent US20210277137A1

# system tested: human CD40 on cells (human, UniProt P25942 21-277)
# Sequence (P25942 21-277 limits assumed): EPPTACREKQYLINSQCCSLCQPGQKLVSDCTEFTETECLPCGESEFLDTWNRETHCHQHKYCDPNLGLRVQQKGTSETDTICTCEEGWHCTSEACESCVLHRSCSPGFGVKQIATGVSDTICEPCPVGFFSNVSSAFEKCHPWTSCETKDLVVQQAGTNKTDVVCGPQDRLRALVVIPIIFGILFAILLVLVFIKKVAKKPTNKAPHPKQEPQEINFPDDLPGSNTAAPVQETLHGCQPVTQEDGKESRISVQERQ
# assay text: cell-based or functional assay
Let's look at some binders and their measured Maximal activation (OD655) in HEK293 blue CD40 NFκB reporter cells.
Answer format: numeric, OD655 implied, no suffix.

[in] Given Humanized muAb9 #4 (antibody, V domains shown) VH: EVQLQESGPGLVKPSETLSLTCTVSGYSITSNYYWNWIRQPPGKGLEWMGYIRYDGSNNYNPSLKNRITISRDTSKNQFSLKLSSVTAADTAVYYCARLDYWGQGTTVTVSS VL: DAVMTQTPLSLSVTPGQPASISCRSSQSLENTNGNTFLNWYLQKPGQSPQLLIYRVSNRFSGVPDRFSGSGSGTDFTLKISRVEAEDVGVYYCLQVTHVPFTFGQGTKLEIK , state its recorded Maximal activation (OD655) in HEK293 blue CD40 NFκB reporter cells.
[out] 0.61

[in] Sample Humanized muAb6 #3 (antibody, V domains shown) VH: EVQLVQSGAEVKKPGSSVKVSCKASGYTFTSYWMHWVRQAPGQGLEWIGNIDPSNGETHYAQKFQGRVTITVDKSTSTAYMELSSLRSEDTAVYYCARERIYYSGSTYDGYFDVWGQGTTVTVSS VL: DIQLTQSPSFLSASVGDRVTITCSASSSLSYMHWYQQKPGKSPKRWIYDTSKLASGVPSRFSGSGSGTEYTLTISSLQPEDFATYYCQQWSSNPWTFGGGTKVEIK — what was its Maximal activation (OD655) in HEK293 blue CD40 NFκB reporter cells?
[out] 0.32

[in] So what does the record say about Maximal activation (OD655) in HEK293 blue CD40 NFκB reporter cells for Humanized muAb9 #2 (antibody, V domains shown) VH: EVQLQESGPGLVKPSETLSLTCTVSGYSITSNYYWNWIRQPPGKGLEWMGYIRYDGSNNYNPSLKNRVTISRDTSKNQFSLKLSSVTAADTAVYYCARLDYWGQGTTVTVSS VL: DAVMTQTPLSLSVTPGQPASISCRSSQSLENTNGNTFLNWFLQKPGQSPQLLIYRVSNRFSGVPDRFSGSGSGTDFTLKISRVEAEDVGVYFCLQVTHVPFTFGQGTKLEIK ?
[out] 0.27
